- targetSystem: c-Myc template DNA (c-myc quadruplex)
- assayProtocol: Quadruplex binding / stop assay (Taq polymerase arrest, capillary electrophoresis)
- studyConditions: read-out: Stop Data c-Myc μM; concentration at which 50% of the DNA was arrested (arrested:full-length 1:1)
Binary label based on IC50 with cut-off 0.8 µM: below gives fulfilled, not below gives not fulfilled.

Input line: IC50 under 0.8 µM? Item: CN1CCCC1CCNc1c(F)cc2c(=O)c(C(=O)NCCN3CCCC3)cn3c4cc5oc6cc([N+](=O)[O-])ccc6[nH]c5cc4oc1c23 (stereo not shown)
Output line: fulfilled

Input line: IC50 under 0.8 µM? Item: `CN1CCN(CCCNc2c(F)cc3c(=O)c(C(=O)O)cn4c5cc6oc7cc(N)ccc7[nH]c6cc5oc2c34)CC1`
Output line: fulfilled

Input line: IC50 under 0.8 µM? Item: `O=C(NCCN1CCCC1)c1cn2c3c(c(NCCN4CCCC4)c(F)cc3c1=O)Oc1cc3ccccc3cc1-2`
Output line: not fulfilled

Input line: IC50 under 0.8 µM? Item: CN1CCCC1CCNc1c(F)cc2c(=O)c(C(=O)N3CC[C@H](N)C3)cn3c4cc5c(cc4oc1c23)c(=O)c1ccccc15 (stereo partly shown)
Output line: not fulfilled

Input line: IC50 under 0.8 µM? Item: `O=C(NCCCN1CCOCC1)c1cn2c3c(c(NCCCN4CCOCC4)c(F)cc3c1=O)Oc1ccccc1-2`
Output line: not fulfilled

Input line: IC50 under 0.8 µM? Item: CN(C)CCCNC(=O)c1cn2c3c(c(N4CCC(NC(=O)OC(C)(C)C)C4)c(F)cc3c1=O)Oc1cc3ccccc3cc1-2 (stereo not shown)
Output line: not fulfilled

Input line: IC50 under 0.8 µM? Item: `CN(C)CCCCNc1c(F)cc2c(=O)c(C(=O)NCCCN3CCOCC3)cn3c2c1Oc1c-3ccc2ccccc12`
Output line: fulfilled

Input line: IC50 under 0.8 µM? Item: CCN(CC)C(=O)C1CCCN(c2c(F)cc3c(=O)c(C(=O)NCCC4CCCN4C)cn4c3c2Oc2cc3ccccc3cc2-4)C1 (stereo not shown)
Output line: not fulfilled

Input line: IC50 under 0.8 µM? Item: `CN(C)CCCCNc1ccc2c(=O)c(C(=O)NCCN3CCCC3)cn3c2c1Oc1cc2ccccc2cc1-3`
Output line: not fulfilled

Input line: IC50 under 0.8 µM? Item: `CN(C)CCCCNc1c(F)cc2c(=O)c(C(=O)NCCN3CCCC3)cn3c4cc5c(cc4oc1c23)c(=O)c1ccccc15`
Output line: fulfilled

====

Field: IC50. Provide a value for each of the molecules that follow.
- targetSystem: c-Myc template DNA (c-myc quadruplex)
- assayProtocol: Quadruplex binding / stop assay (Taq polymerase arrest, capillary electrophoresis)
- studyConditions: read-out: S DATA; Table 1D, stop assay data

Input line: Please report the recorded IC50 for CN1CCCC1CCNC(=O)c1cn2c3c(c(N4CCC(N)C4)c(F)cc3c1=O)Oc1ccccc1-2 (centres unmarked) .
Output line: > 15 µM

Input line: Please report the recorded IC50 for `CC(C)N1CCN(c2c(F)cc3c(=O)c(C(=O)NCCN4CCOCC4)cn4c3c2Oc2ccc(Cl)cc2-4)CC1` .
Output line: > 15 µM

Input line: Please report the recorded IC50 for CN1CCCC1CCNC(=O)c1cn2c3c(c(NCCCN)c(F)cc3c1=O)Oc1cc(Cl)ccc1-2 (centres unmarked) .
Output line: > 15 µM

Input line: Please report the recorded IC50 for `CN1CCN(CCCNc2c(F)cc3c(=O)c(C(=O)N4CCN(C)CC4)cn4c3c2Oc2ccccc2-4)CC1` .
Output line: > 15 µM

Input line: Please report the recorded IC50 for CC(C)(C)OC(=O)NC1CCN(C(=O)c2cn3c4c(c(NCCN5CCOCC5)c(F)cc4c2=O)Oc2ccccc2-3)C1 (centres unmarked) .
Output line: > 15 µM

Input line: Please report the recorded IC50 for `CN(C)CCCCNC(=O)c1cn2c3c(c(NCCCN4CCOCC4)ccc3c1=O)Oc1cc3ccccc3cc1-2` .
Output line: > 15 µM

Input line: Please report the recorded IC50 for CC(C)(C)OC(=O)NC1CCN(c2c(F)cc3c(=O)c(C(=O)NCCCCN)cn4c3c2Oc2ccccc2-4)C1 (centres unmarked) .
Output line: > 15 µM

Input line: Please report the recorded IC50 for `O=C(NCCN1CCOCC1)c1cn2c3c(c(SCCc4cnccn4)c(F)cc3c1=O)Oc1cc(Cl)ccc1-2` .
Output line: > 15 µM

Input line: Please report the recorded IC50 for CN1CCN(CCCNc2c(F)cc3c(=O)c(C(=O)N4CCC(NC(=O)OC(C)(C)C)C4)cn4c3c2Oc2ccccc2-4)CC1 (centres unmarked) [compound 1574] .
Output line: > 15 µM

Input line: Please report the recorded IC50 for `CC(C)N1CCN(c2c(F)cc3c(=O)c(C(=O)N4CCC(N5CCCC5)CC4)cn4c3c2Oc2ccccc2-4)CC1` .
Output line: > 15 µM

Input line: Please report the recorded IC50 for COc1ccccc1CCNC(=O)c1cn2c3c(c(N4CCC(N)C4)c(F)cc3c1=O)Oc1cc3ccccc3cc1-2 (centres unmarked) .
Output line: > 15 µM

Input line: Please report the recorded IC50 for `O=C(NCCN1CCCC1)c1cn2c3c(c(NCCN4CCOCC4)ccc3c1=O)Oc1cc3ccccc3cc1-2` .
Output line: > 15 µM

Input line: Please report the recorded IC50 for NC1CCN(c2c(F)cc3c(=O)c(C(=O)NCCN4CCOCC4)cn4c3c2Oc2ccccc2-4)C1 (centres unmarked) .
Output line: > 15 µM

Input line: Please report the recorded IC50 for `CC1(C)CC(NC(=O)c2cn3c4c(c(NCCN5CCCC5)c(F)cc4c2=O)Oc2ccccc2-3)CC(C)(C)N1` .
Output line: > 15 µM

====

- targetSystem: c-Myc template DNA (c-myc quadruplex)
- assayProtocol: Quadruplex binding / stop assay (Taq polymerase arrest, capillary electrophoresis)
- studyConditions: read-out: Stop Data c-Myc μM; concentration at which 50% of the DNA was arrested (arrested:full-length 1:1)
measuredParameter: IC50 (µM)
Field format: number, assumed µM, no unit text.

Input line: Please report the recorded IC50 for CN(C)CCCCNC(=O)c1cn2c3c(c(N4CCC(N)C4)c(F)c(N)c3c1=O)Oc1cc3ccccc3cc1-2 (stereo not shown) .
Output line: 1.75

Input line: Please report the recorded IC50 for NC1CCN(C(=O)c2cn3c4cc5c(=O)c6ccccc6c(=O)c5cc4oc4c(NCCCN5CCOCC5)c(F)cc(c2=O)c43)C1 (stereo not shown) .
Output line: 2.5

Input line: Please report the recorded IC50 for CN(C)CCCCNC(=O)c1cn2c3c(c(N4CCC(NC(=O)OC(C)(C)C)C4)c(F)cc3c1=O)Oc1cc3c(cc1-2)oc1ccccc13 (stereo not shown) .
Output line: 1.75

Input line: Please report the recorded IC50 for `N[C@@H]1CCN(C(=O)c2cn3c4c(c(N5CC[C@@H](N)C5)c(F)cc4c2=O)Oc2c-3ccc3ccccc23)C1` .
Output line: 2.5

Input line: Please report the recorded IC50 for CCN(C)CCCC(C)NC(=O)c1cn2c3c(c(NCCN4CCCC4)ccc3c1=O)Oc1cc3ccccc3cc1-2 (stereo not shown) .
Output line: 0.375

Input line: Please report the recorded IC50 for O=C(NCCN1CCCC1)c1cn2c3c(c(N4CCC(c5cnccn5)C4)c(F)cc3c1=O)Oc1ccccc1-2 (stereo not shown) .
Output line: 3

Input line: Please report the recorded IC50 for `O=C(NCCN1CCOCC1)c1cn2c3cc4c(cc3oc3c(NCCN5CCOCC5)c(F)cc(c1=O)c32)c(=O)c1ccccc14` .
Output line: 1

====

- targetSystem: c-Myc template DNA (c-myc quadruplex)
- assayProtocol: Quadruplex binding / stop assay (Taq polymerase arrest, capillary electrophoresis)
- studyConditions: read-out: Stop Data c-Myc μM; concentration at which 50% of the DNA was arrested (arrested:full-length 1:1)
Binary label based on IC50 with cut-off 2 µM: below gives t, not below gives f.

Input line: IC50 under 2 µM? Item: `CC(C)(C)OC(=O)N[C@@H]1CCN(C(=O)c2cn3c4c(c(N5CC[C@@H](NC(=O)OC(C)(C)C)C5)c(F)cc4c2=O)Oc2cc4ccccc4cc2-3)C1`
Output line: f

Input line: IC50 under 2 µM? Item: `CN1CCN(CCCNc2c(F)cc3c(=O)c(C(=O)NCCN4CCCC4)cn4c3c2Oc2cc3c(cc2-4)oc2ccccc23)CC1`
Output line: t

Input line: IC50 under 2 µM? Item: CN1CCCC1CCNC(=O)c1cn2c3c(c(N4CC[C@H](N)C4)c(F)cc3c1=O)Oc1ccccc1-2 (stereo partly shown)
Output line: f

Input line: IC50 under 2 µM? Item: `CC(=O)N[C@@H]1CCN(c2c(F)cc3c(=O)c(C(=O)NCCCCN(C)C)cn4c3c2Oc2cc3c(cc2-4)oc2ccccc23)C1`
Output line: t

Input line: IC50 under 2 µM? Item: CN1CCCC1CCNC(=O)c1cn2c3c(c(N4CCC(N)C4)ccc3c1=O)Oc1cc3ccccc3cc1-2 (stereo not shown)
Output line: t

Input line: IC50 under 2 µM? Item: CC(C)(C)OC(=O)NC1CCN(c2c(F)cc3c(=O)c(C(=O)NCCc4ccc(N)cc4)cn4c3c2Oc2cc3ccccc3cc2-4)C1 (stereo not shown)
Output line: t

Input line: IC50 under 2 µM? Item: `CN1CCN(CCCNc2ccc3c(=O)c(C(=O)NCCCN4CCOCC4)cn4c3c2Oc2cc3ccccc3cc2-4)CC1`
Output line: t
